study.target: Human recombinant PDE3A (hPDE3A) (Homo sapiens, UniProt Q14432)
Construct: purchased Scottish Biomedical; host or cells: Sf9 insect cells
Sequence (Q14432 whole entry): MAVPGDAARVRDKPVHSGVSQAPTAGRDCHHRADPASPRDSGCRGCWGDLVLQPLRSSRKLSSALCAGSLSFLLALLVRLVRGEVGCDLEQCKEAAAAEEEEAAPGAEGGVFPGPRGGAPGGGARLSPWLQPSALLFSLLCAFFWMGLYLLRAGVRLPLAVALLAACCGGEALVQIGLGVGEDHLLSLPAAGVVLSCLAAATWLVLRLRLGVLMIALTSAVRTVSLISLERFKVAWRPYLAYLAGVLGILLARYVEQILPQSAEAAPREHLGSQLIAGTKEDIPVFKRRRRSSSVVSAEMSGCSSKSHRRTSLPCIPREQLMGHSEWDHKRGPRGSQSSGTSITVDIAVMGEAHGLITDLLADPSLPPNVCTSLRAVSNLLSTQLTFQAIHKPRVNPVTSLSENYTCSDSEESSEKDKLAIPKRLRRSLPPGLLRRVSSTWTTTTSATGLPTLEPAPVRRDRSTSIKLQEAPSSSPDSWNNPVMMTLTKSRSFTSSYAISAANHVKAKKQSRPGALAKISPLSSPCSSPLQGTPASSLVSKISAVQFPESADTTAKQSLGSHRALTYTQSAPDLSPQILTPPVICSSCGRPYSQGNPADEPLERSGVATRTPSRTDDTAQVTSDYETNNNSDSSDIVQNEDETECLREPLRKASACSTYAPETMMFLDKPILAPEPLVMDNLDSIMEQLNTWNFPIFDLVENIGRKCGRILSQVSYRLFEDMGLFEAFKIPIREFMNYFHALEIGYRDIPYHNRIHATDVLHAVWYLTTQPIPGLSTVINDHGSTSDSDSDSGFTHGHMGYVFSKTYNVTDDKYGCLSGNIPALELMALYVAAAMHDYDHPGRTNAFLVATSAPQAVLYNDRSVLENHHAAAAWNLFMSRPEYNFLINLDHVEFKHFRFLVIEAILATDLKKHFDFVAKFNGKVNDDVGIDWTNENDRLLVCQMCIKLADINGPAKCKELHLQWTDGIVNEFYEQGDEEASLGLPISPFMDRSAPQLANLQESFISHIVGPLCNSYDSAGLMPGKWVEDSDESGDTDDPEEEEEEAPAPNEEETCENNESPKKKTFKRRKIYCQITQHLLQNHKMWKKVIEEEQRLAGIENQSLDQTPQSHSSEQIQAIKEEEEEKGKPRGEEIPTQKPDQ
assay.remarks: In vitro assay PDE3A (SPA, 3H-cAMP hydrolysis);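 further: the method names PDE3A and the table heading PDE3B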
Assay type: biochemical
study.conditions: read-out: hPDE3B Emax; read-out: Emax
Think of 80% as a floor: if Emax stands on it or above, it is class 1; beneath it, class 0.

[[record]]
chem_smiles = "C[C@@H]1CCN(C(=O)c2ccc(C(F)(F)F)nc2Cl)C[C@H]1c1cc(C(F)F)nc2ncnn12"
category_label = "class 0"


Task: Test whether the molecule Cc1cc(C(=O)N2CC[C@@H](C)[C@H](c3cc(C)nc4ncnn34)C2)cc(OC(F)F)n1 records Emax of 80% or higher.
Result: class 1

* * *

study.target: Human recombinant PDE10A (hPDE10A) (Homo sapiens, UniProt Q9Y233)
Construct: His tag (inferred from metal chelate purification); made in house; host or cells: Sf9 insect cells (baculovirus)
Sequence (Q9Y233 267-1055): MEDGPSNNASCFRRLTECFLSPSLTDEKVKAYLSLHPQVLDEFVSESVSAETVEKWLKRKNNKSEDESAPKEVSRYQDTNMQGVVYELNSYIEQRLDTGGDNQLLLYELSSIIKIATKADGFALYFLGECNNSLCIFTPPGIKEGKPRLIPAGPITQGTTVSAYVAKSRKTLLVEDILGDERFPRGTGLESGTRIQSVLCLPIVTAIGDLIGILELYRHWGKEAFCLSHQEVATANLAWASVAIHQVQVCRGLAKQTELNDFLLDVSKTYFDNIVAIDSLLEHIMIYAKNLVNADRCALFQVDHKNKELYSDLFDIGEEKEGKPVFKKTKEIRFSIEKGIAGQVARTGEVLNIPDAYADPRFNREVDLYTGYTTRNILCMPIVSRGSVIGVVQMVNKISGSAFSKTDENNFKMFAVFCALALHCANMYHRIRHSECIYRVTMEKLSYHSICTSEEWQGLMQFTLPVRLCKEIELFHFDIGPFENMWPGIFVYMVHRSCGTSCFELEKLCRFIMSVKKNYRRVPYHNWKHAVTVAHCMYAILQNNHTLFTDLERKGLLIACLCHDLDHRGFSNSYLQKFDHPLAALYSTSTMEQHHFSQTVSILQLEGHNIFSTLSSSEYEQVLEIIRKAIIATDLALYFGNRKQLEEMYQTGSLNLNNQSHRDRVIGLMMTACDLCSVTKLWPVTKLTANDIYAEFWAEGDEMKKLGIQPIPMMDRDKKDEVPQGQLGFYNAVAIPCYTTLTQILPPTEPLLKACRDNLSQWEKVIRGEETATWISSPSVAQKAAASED
assay.remarks: In vitro assay PDE10A, human clone (SPA, 3H-cAMP hydrolysis)
Format: biochemical
study.conditions: human clone by default (no (r) mark); read-out: hPDE10A2 or rPDE10A2 Emax
Experimental: Rat recombinant PDE10A (rPDE10A2) was expressed in Sf9 cells using a recombinant rPDE10A baculovirus construct. […] Tested compounds were dissolved and diluted in 100% DMSO to a concentration 100 fold of the final concentration in the assay. […] After sedimentation of the beads during 30 minutes the radioactivity was measured in a Perkin Elmer Topcount scintillation counter and results were expressed as cpm. […]
assay.endpoint: Emax (%)
One number for each entry, in %.

Solved entries (count: 3):
[[record]]
chem_smiles = "Cc1ccc(C(=O)N2[C@H]3CC[C@H](c4cc(C(F)F)nc5ncnn45)[C@@H]2CC3)s1"
study_target = "Human recombinant PDE10A (hPDE10A) (Homo sapiens, UniProt Q9Y233)"
assay_endpoint = "Emax"
unit_of_measurement = "%"
val = 86

[[record]]
chem_smiles = "O=C(c1cnc2ccccc2c1)N1[C@H]2CC[C@H](c3cc(C(F)F)nc4ncnn34)[C@@H]1CC2"
study_target = "Human recombinant PDE10A (hPDE10A) (Homo sapiens, UniProt Q9Y233)"
assay_endpoint = "Emax"
unit_of_measurement = "%"
val = 86

[[record]]
chem_smiles = "C[C@@H]1CCN(C(=O)c2ccc3ccccc3n2)C[C@H]1c1cc(C(F)F)nc2ncnn12"
study_target = "Human recombinant PDE10A (hPDE10A) (Homo sapiens, UniProt Q9Y233)"
assay_endpoint = "Emax"
unit_of_measurement = "%"
val = 97


Look up Emax for the entries below, preserving their order.
1. Cc1cc([C@@H]2CC[C@@H]3CC[C@H]2N3C(=O)c2ccc3ncsc3c2)n2ncnc2n1
2. Cn1c(C(=O)N2[C@H]3CC[C@H](c4cc(C(F)F)nc5ncnn45)[C@@H]2CC3)cc2ccccc21
3. C[C@@H]1CCN(C(=O)c2ccc(C3CC3)c(C3CC3)c2)C[C@H]1c1cc(C(F)F)nc2ncnn12
4. O=C(c1ccc2ccccc2n1)N1[C@H]2CC[C@H](c3cc(C(F)F)nc4ncnn34)[C@@H]1CC2
5. Cc1cc(C(=O)N2[C@H]3CC[C@H](c4cc(C(F)F)nc5ncnn45)[C@@H]2CC3)cc(C(F)(F)F)n1
6. O=C(c1cc(F)cc(F)c1)N1[C@H]2CC[C@H](c3cc(C(F)F)nc4ncnn34)[C@@H]1CC2
7. C[C@@H]1CCN(C(=O)c2cc(C(C)(C)C)on2)C[C@H]1c1cc(C(F)F)nc2ncnn12

Result:
1: 65; 2: 80; 3: 100; 4: 66; 5: 79; 6: 63; 7: 90

Look up Emax for the entries below, preserving their order.
1. COc1c(F)cc(C(=O)N2[C@H]3CC[C@H](c4cc(C(F)F)nc5ncnn45)[C@@H]2CC3)cc1F
2. O=C(c1cn2ccsc2n1)N1[C@H]2CC[C@H](c3cc(C(F)F)nc4ncnn34)[C@@H]1CC2

Result:
[86, 55]
